# system.tested: CD3 epsilon/gamma heterodimer (Homo sapiens, UniProt P07766;P09693 P07766:23-126,P09693:23-116)
# Sequence (P07766 23-126, chain 1 of 2): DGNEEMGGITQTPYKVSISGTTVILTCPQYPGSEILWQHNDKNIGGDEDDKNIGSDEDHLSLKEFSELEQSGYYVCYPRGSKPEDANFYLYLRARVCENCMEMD
# Sequence (P09693 23-116, chain 2 of 2): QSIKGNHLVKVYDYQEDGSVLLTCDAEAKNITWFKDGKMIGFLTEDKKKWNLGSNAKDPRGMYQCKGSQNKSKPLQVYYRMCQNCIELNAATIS
# assay.remarks: SPR; steady state; kinetic 2.3 nM (Table 6)
# test.context: tags: C-terminal human IgG1 Fc fusion, AcroBiosystems; chain copies: heterodimer 1:1 (inferred); label: 5'-biotin-TEG
measurement.label: Kd (nM)
// return numeric value only (unit: nM, not printed)

Record CGACCACAGGGGTTTGGCTTCGGGACTGGCGGTGGGCACT (ssDNA) [CELTIC_22s (printed CELTIC_CD3_22)] . Reported Kd: 162
